I'd be grateful if you could share measured IC50 for these entries.
biological target: UniProtKB Q9NYK1; assay: HEK Cell Assay (TLR7/NFKb HEK reporter cells, Steady-Glo); settings: compound 30 min, then R*48 agonist 5 hours, Steady-Glo readout, read-out: Potency

Guide cases for IC50, answers given:
molecule	assay-result
C[C@@H]1C[C@H](c2ccc(C#N)c3ncccc23)CN(C(=O)NC2CCN(C)CC2)C1 [Compound 113]	< 1000 nM
COCCN[C@@H]1C[C@H](C)C[C@@H](c2ccc(C(F)(F)F)c3ncccc23)C1 (racemic) [Compound 151]	1000 to 20000 nM
C[C@@H]1C[C@H](c2ccc(C#N)c3ncccc23)CN(C(=O)[C@@H](N)C2CC2)C1 [Compound 61]	1000 to 20000 nM

For each of the items listed, what is its IC50?
1. C[C@@H]1CC(c2ccc(C#N)c3ncccc23)CN(C(=O)CC2CCN(C)CC2)C1 (stereo partly shown) [Compound 2]
2. C[C@@H]1C[C@H](c2ccc(C#N)c3ncccc23)CN(C(=O)CC2CCN(C)CC2)C1 [Compound 1]
3. C[C@@H]1C[C@@H](c2ccc(C#N)c3ncccc23)CN(CC(=O)Nc2cnn(C)c2)C1 (relative stereo) [Compound 77]
4. COCCN[C@@H]1C[C@H](C)C[C@H](c2ccc(C(F)(F)F)c3ncccc23)C1 [Compound 152]

< 1000 nM
< 1000 nM
> 20000 nM
> 20000 nM

====

biological target: TLR7 (Homo sapiens, UniProt Q9NYK1); test: HEK Cell Assay (TLR7/NFKb HEK reporter cells, Steady-Glo); settings: compound 30 min, then R*48 agonist 5 hours, Steady-Glo readout, read-out: Potency
pIC50: −log10 of the molar value.
I'd be grateful if you could share measured pIC50 for these entries.

compound	assay-result
C[C@@H]1C[C@H](c2ccc(C#N)c3ncccc23)CN(C(=O)C2CN(C)C2)C1 (relative stereo)	4.70 to 6.00

For each of the items listed, what is its pIC50?
1. C[C@H]1C[C@@H](NC(=O)[C@@H](O)C(C)(C)C)C[C@@H](c2ccc(C(F)(F)F)c3nccnc23)C1
2. C[C@@H]1C[C@H](c2ccc(C(F)(F)F)c3ncccc23)CN(C)C1 (relative stereo)
3. C[C@@H]1C[C@H](c2cccc3ncccc23)CN(C(=O)NC2CCN(C)CC2)C1
4. C[C@H]1C[C@@H](N)C[C@H](c2ccc(C(F)(F)F)c3nccnc23)C1

1. > 6.00
2. < 4.70
3. 4.70 to 6.00
4. 4.70 to 6.00

For each of the items listed, what is its pIC50?
1. COc1ncc([C@H]2C[C@@H](C)CN(C(=O)CC3CCN(C)CC3)C2)c2cccnc12
2. C[C@H]1C[C@@H](NC(=O)[C@@H](N)C(F)(F)F)C[C@@H](c2ccc(C#N)c3nccnc23)C1 (racemic)

4.70 to 6.00
4.70 to 6.00

====

I'd be grateful if you could share measured pIC50 for these entries.
target: TLR7 (Homo sapiens, UniProt Q9NYK1); test: HEK Cell Assay (TLR7/NFKb HEK reporter cells, Steady-Glo); settings: compound 30 min, then R*48 agonist 5 hours, Steady-Glo readout, read-out: Potency
pIC50: −log10 of the molar value.

Guide cases for pIC50, answers given:
compound	quantity	assay-result
CC(C)[C@H](O)C(=O)N[C@H]1C[C@@H](C)C[C@H](c2ccc(C#N)c3nccnc23)C1	pIC50	4.70 to 6.00
Cc1c(F)cc([C@H]2C[C@@H](C)CN(C(=O)CC3CCN(C)CC3)C2)c2cccnc12	pIC50	> 6.00
COCCN[C@H]1C[C@@H](C)C[C@@H](c2ccc(C(F)(F)F)c3ncccc23)C1	pIC50	4.70 to 6.00
C[C@@H]1C[C@H](c2ccc(C#N)c3ncccc23)CN(C(=O)CN2CCC2)C1 (relative stereo)	pIC50	4.70 to 6.00
C[C@H]1C[C@@H](c2ccc(C(F)(F)F)c3ncccc23)CN(C(=O)CC2CCN(C)CC2)C1	pIC50	4.70 to 6.00
Cc1ncc([C@H]2C[C@@H](C)CN(C(=O)CC3CCN(C)CC3)C2)c2cccnc12	pIC50	4.70 to 6.00

Query compound follows.
response.value for C[C@@H]1C[C@H](c2ccc(C#N)c3ncccc23)CN(C(=O)CC(F)(F)F)C1 (relative stereo) (field: pIC50) = < 4.70

====

biological target: TLR7 (Homo sapiens, UniProt Q9NYK1); assay: HEK Cell Assay (TLR7/NFKb HEK reporter cells, Steady-Glo); conditions: compound 30 min, then R*48 agonist 5 hours, Steady-Glo readout, read-out: Potency
I'd be grateful if you could share measured IC50 for these entries.

For each of the items listed, what is its IC50?
1. C[C@@H]1C[C@H](N)C[C@H](c2ccc(C#N)c3nccnc23)C1 [Compound 122]
2. Cc1ncc([C@@H]2C[C@@H](C)CN(C(=O)CC3CCN(C)CC3)C2)c2cccnc12 [Compound 94]
3. CC(C)[C@H](O)C(=O)N[C@@H]1C[C@H](C)C[C@@H](c2ccc(C#N)c3nccnc23)C1 [Compound 127]
4. C[C@H]1C[C@@H](NC(=O)CC(C)(C)C)C[C@@H](c2ccc(C#N)c3nccnc23)C1 (racemic) [Compound 129]
5. C[C@@H]1C[C@H](c2ccc(C#N)c3ncccc23)CN(C(=O)C2CCC(F)(F)CC2)C1 (relative stereo) [Compound 37]
6. C[C@H]1C[C@@H](c2ccc(C#N)c3ncccc23)CN(C(=O)CC2CCN(C)CC2)C1 [Compound 56]
7. C[C@@H]1C[C@H](c2ccc(C#N)c3ncccc23)CN(C(=O)CC2C3CC2CN(C)C3)C1 (some centres unmarked) [Compound 93]

["1 to 20 µM", "1 to 20 µM", "> 20 µM", "< 1 µM", "> 20 µM", "1 to 20 µM", "< 1 µM"]

response.value for COCCN[C@H]1C[C@@H](C)C[C@@H](c2ccc(C(F)(F)F)c3nccnc23)C1 [Compound 148] (field: IC50) = 1 to 20 µM

====

Target: TLR7 (Homo sapiens, UniProt Q9NYK1)
Sequence (Q9NYK1 27-1049): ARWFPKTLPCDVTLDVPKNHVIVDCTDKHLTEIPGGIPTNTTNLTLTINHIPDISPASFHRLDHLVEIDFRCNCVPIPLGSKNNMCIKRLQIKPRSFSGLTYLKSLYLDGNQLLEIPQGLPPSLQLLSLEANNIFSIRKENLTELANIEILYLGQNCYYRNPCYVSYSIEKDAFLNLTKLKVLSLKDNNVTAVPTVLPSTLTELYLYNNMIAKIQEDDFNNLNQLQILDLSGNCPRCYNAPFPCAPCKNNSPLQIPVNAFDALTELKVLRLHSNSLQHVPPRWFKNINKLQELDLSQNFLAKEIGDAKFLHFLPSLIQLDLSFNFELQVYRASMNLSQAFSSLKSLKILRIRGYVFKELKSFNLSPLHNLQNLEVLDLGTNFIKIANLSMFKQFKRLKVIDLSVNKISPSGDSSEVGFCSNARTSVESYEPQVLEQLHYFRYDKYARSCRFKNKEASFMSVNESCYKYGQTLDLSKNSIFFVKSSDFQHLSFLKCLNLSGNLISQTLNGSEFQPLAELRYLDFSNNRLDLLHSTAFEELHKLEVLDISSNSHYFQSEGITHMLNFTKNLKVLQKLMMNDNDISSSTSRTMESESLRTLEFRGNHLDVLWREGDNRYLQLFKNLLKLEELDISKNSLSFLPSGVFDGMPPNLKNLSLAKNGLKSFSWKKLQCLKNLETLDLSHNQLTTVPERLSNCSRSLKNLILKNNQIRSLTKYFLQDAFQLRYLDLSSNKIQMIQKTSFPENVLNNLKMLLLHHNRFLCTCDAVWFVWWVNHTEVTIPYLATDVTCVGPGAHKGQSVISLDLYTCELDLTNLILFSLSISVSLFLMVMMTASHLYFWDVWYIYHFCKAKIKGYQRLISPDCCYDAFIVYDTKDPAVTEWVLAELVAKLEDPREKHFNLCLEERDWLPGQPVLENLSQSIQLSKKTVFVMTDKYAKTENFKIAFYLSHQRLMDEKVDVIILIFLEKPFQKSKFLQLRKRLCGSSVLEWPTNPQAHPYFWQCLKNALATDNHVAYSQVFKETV
Assay: HEK Cell Assay (TLR7/NFKb HEK reporter cells, Steady-Glo)
Conditions: compound 30 min, then R*48 agonist 5 hours, Steady-Glo readout, read-out: Potency
I'd be grateful if you could share measured IC50 for these entries.

molecule	study-target	assay-result
COc1ncc([C@@H]2C[C@@H](C)CN(C(=O)CC3CCN(C)CC3)C2)c2cccnc12	TLR7 (Homo sapiens, UniProt Q9NYK1)	1 to 20 µM

For each of the items listed, what is its IC50?
1. COCCN[C@@H]1C[C@H](C)C[C@@H](c2ccc(C#N)c3nccnc23)C1 (relative stereo)
2. C[C@H]1C[C@@H](NC(=O)CN2CCCCC2)C[C@@H](c2ccc(C#N)c3nccnc23)C1 (racemic)
3. CC1CC(c2ccc(C(F)(F)F)c3ncccc23)CN(c2cnn(C)c2)C1 (stereo not drawn)
4. C[C@@H]1C[C@H](c2ccc(C#N)c3ncccc23)CN(C(=O)C2CCN(C)CC2)C1 (relative stereo)
5. CC1C[C@@H](c2ccc(C(F)(F)F)c3ncccc23)CN(C(=O)CN2CCOCC2)C1 (stereo partly drawn)
6. C[C@@H]1C[C@H](c2ccc(C(F)(F)F)c3ncccc23)CN(C(=O)CN2CCOCC2)C1 (relative stereo)

1 to 20 µM
< 1 µM
1 to 20 µM
1 to 20 µM
> 20 µM
> 20 µM

For each of the items listed, what is its IC50?
1. COCCN[C@@H]1C[C@H](C)C[C@@H](c2ccc(C(F)(F)F)c3nccnc23)C1
2. C[C@@H]1C[C@H](c2ccc(C#N)c3ncccc23)CN(C(=O)C2CC(N)C2)C1 (stereo partly drawn)

1 to 20 µM
< 1 µM
